Procedure Text: chemical genetic growth profiling, strain panel (AID 1159580);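 further: tested at 20 µM; growth read once vehicle control cultures reached saturation at 30 °C; 1 = growth at the plate median or of vehicle wells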
Cond: S. cerevisiae deletion strains, growth OD, locus YFR003C, strain YPI1, stronger effect = lower value
The whole screen tested about 5,500 compounds, of which about 2,000 (36%) were called active. About 18% were inconclusive and are not listed. This is one part of the list.

# Compound, normalized growth
data = [
    ("CN(C)/C=C/C(=O)c1ccc(C#Cc2ccccc2)cc1", 0.993),
    ("O=C(Nc1ccccn1)c1cc(-c2ccccc2)c(C(F)(F)F)s1", 0.95),
    ("C/C(=N/OC(=O)Nc1ccc(Cl)cc1)c1ccc2c(c1)CCO2", 0.959),
    ("CSc1c(C#N)c(-c2ccc(Cl)cc2)nn1C(=O)c1ccccc1Cl", 0.954),
    ("COc1ccccc1C(C[N+](=O)[O-])c1c(N)n(C)c(=O)n(C)c1=O (stereo not drawn)", 0.953),
    ("CCC1CCC(C)N(C(=S)Nc2ccc(Br)cc2C)C1 (stereo not drawn)", 0.978),
    ("CCCC1c2ccsc2CCN1C(=S)Nc1ccc(Cl)cc1Cl (stereo not drawn)", 0.975),
    ("N=C(N)SCc1nc(-c2ccc(Cl)cc2)no1", 0.982),
]

* * *

Procedure Text: chemical genetic growth profiling, strain panel (AID 1159580)
Cond: S. cerevisiae deletion strains, growth OD, locus YLR384C, strain iki3, stronger effect = lower value
Out of some 5,500 compounds screened, about 2,000 (36%) were called active. Another 18% or so got no clear call; they are omitted. The list shows a part of the results.
Rule for this label: Fulfilled means normalized growth is less than 1; Not fulfilled means normalized growth is at least 1.

# Compound, Assigned Class
rows = [
    ("NCCCCN=C(N)N", "Not fulfilled"),
    ("CC[C@@H](C(=O)[C@@H](C)[C@@H](O)[C@H](C)[C@@H]1O[C@@H]([C@@H](CC)C(=O)O)CC[C@@H]1C)[C@H]1OC2(C=C[C@@H](O)[C@]3(CC[C@@](C)([C@H]4CC[C@](O)(CC)[C@H](C)O4)O3)O2)[C@H](C)C[C@@H]1C (stereo partly specified)", "Fulfilled"),
    ("CC[C@@H]1[C@@H](O)N2C3C[C@H]1C1C(O)[C@]4(C[C@@H]12)c1ccccc1N(C)[C@@H]34 (stereo partly specified)", "Not fulfilled"),
    ("CCCN(CCC)CCc1cccc2c1CC(=O)N2", "Fulfilled"),
    ("CC1(C)O[C@@H]2[C@@H](CO[C@@]3(COS(N)(=O)=O)OC(C)(C)O[C@@H]23)O1", "Not fulfilled"),
    ("C=CCN1CC[C@]23c4c5ccc(O)c4OC2C(=O)CC[C@@]3(O)[C@H]1C5 (stereo partly specified)", "Fulfilled"),
    ("C#C[C@]1(O)CCC2C3CCc4cc(O)ccc4C3CC[C@@]21C (stereo partly specified)", "Not fulfilled"),
    ("CC(=O)OCC(=O)[C@@]12OC(C)(C)O[C@@H]1CC1C3C[C@H](F)C4=CC(=O)C=C[C@]4(C)[C@@]3(F)[C@@H](O)C[C@@]12C (stereo partly specified)", "Not fulfilled"),
]

* * *

Catalogue of compounds with associated normalized growth
Procedure Text: chemical genetic growth profiling, strain panel (AID 1159580);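 further: tested at 20 µM; growth read once vehicle control cultures reached saturation at 30 °C; 1 = growth at the plate median or of vehicle wells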
Cond: S. cerevisiae deletion strains, growth OD, locus YLR320W, strain mms22, stronger effect = lower value
Out of some 5,500 compounds screened, about 2,000 (36%) were called active. Not shown: some 18% with an inconclusive outcome. This is one part of the list.
Measured Parameter: normalized growth

# Compound, Reported Value
rows = [
    ("O=C(/C=C/c1ccc(O)c(O)c1)O[C@@H]1C[C@](O)(C(=O)O)C[C@@H](O)[C@H]1O", 0.969),
    ("S=c1[nH]c2ccccc2s1", 0.967),
    ("CC1(C)CC2C1CCC1(C)OC1CCC2(C)O (stereo unspecified)", 1.07),
    ("CC1(C)CC2C1CCC1(C)OC2(C)CCC1O (stereo unspecified)", 1.04),
    ("OC1CCCCC1N1CCC(c2ccccc2)CC1 (stereo unspecified)", 0.998),
    ("CC[C@@H]1[C@@H](O)N2C3C[C@H]1C1C(O)[C@]4(C[C@@H]12)c1ccccc1N(C)[C@@H]34 (stereo partly specified)", 1.01),
    ("NC(=O)c1ccc(N)nc1", 0.995),
    ("COc1ccc(C[C@H](N)C(=O)N[C@@H]2[C@@H](CO)OC(n3cnc4c(N(C)C)ncnc43)[C@@H]2O)cc1 (stereo partly specified)", 1),
    ("c1ccc(-c2ccc(C(c3ccccc3)n3ccnc3)cc2)cc1 (stereo unspecified)", 0.0767),
    ("O=C(NC(=O)c1c(F)cccc1F)Nc1cc(Cl)c(OC(F)(F)C(F)C(F)(F)F)cc1Cl (stereo unspecified)", 0.981),
    ("NC(=O)c1cnccn1", 0.981),
]

* * *

Catalogue of compounds with associated normalized growth
Procedure Text: chemical genetic growth profiling, strain panel (AID 1159580);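 further: tested at 20 µM; growth read once vehicle control cultures reached saturation at 30 °C; 1 = growth at the plate median or of vehicle wells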
Cond: S. cerevisiae deletion strains, growth OD, locus YDR150W, strain NUM1, stronger effect = lower value
In all, about 5,500 compounds went through this assay and about 2,000 (36%) were called active. Another 18% or so got no clear call; they are omitted. The list shows a part of the results.

# Compound, normalized growth
data = [
    ("Oc1cc(O)cc(/C=C/c2ccccc2)c1", 0.998),
    ("CC[C@@H]1[C@@H](O)N2C3C[C@H]1C1C(O)[C@]4(C[C@@H]12)c1ccccc1N(C)[C@@H]34 (some centres undefined)", 1),
    ("CC(C)COC(=O)OCN1C(=O)CN(CCN2CC(=O)N(COC(=O)OCC(C)C)C(=O)C2)CC1=O", 1.01),
    ("CC(=O)OC/C=C(C)/C=C/C=C(C)/C=C/C1=C(C)CCCC1(C)C", 1.01),
    ("c1ccc(CSC2=NCCCN2)cc1", 0.977),
    ("COc1cc(O)cc(/C=C/c2ccccc2)c1", 0.954),
    ("CCn1cc(C(=O)O)c(=O)c2cc3c(cc21)OCO3", 0.99),
    ("COc1ccc(/C=C/c2cc(O)cc(O[C@@H]3O[C@H](CO)[C@@H](O)[C@H](O)[C@H]3O)c2)cc1O", 1.01),
    ("CC(=O)O[C@H]1C[C@@H](OC(C)=O)C(C)(C)C2C[C@@H](OC(C)=O)[C@]3(C)C(CC[C@@]4(C)[C@H](c5ccoc5)C(=O)[C@H]5O[C@]543)[C@]21C (some centres undefined)", 1.02),
    ("COC(=O)c1cc(OC)c(OC)cc1NS(=O)(=O)c1ccc(C)cc1", 0.933),
    ("CC1=C(/C=C/C(C)=C/C=C/C(C)=C/C(=O)Nc2ccc(O)cc2)C(C)(C)CCC1", 1.01),
    ("CC(C)(C)c1nc(N)sc1Br", 0.993),
    ("CCCSP(=O)(OCC)SCCC", 1.02),
    ("CCOC(=O)CCc1cc(N=Cc2cc(Cl)cc(Cl)c2O)c(O)c(N=Cc2cc(Cl)cc(Cl)c2O)c1", 0.328),
    ("CCOC(=O)Nc1ccc(NCc2ccc(F)cc2)nc1N", 0.991),
    ("O=C(O)CCS(=O)(=O)/C=C/c1ccccc1", 0.984),
    ("CCOC(=O)c1c(C)csc1N", 1.01),
    ("C[C@](N)(Cc1ccc(O)c(O)c1)C(=O)O", 0.943),
    ("COc1cc(C(=O)O)c(O)c2c1OCO2", 1.01),
    ("O=S(=O)(c1cc(Br)c(Br)s1)N1CCCCC1", 1.01),
    ("CCOc1ccc2c(c1)C(C)=CC(C)(C)N2", 0.993),
    ("C[C@@]12C(=O)OC(=O)[C@]1(C)C1CCC2O1", 0.926),
    ("COC(=O)c1ccc([N+](=O)[O-])cc1Cl", 0.923),
    ("CCN1C(=O)C=CC1=O", 1.01),
]

* * *

Procedure Text: chemical genetic growth profiling, strain panel (AID 1159580);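 further: tested at 20 µM; growth read once vehicle control cultures reached saturation at 30 °C; 1 = growth at the plate median or of vehicle wells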
Cond: S. cerevisiae deletion strains, growth OD, locus YLR418C, strain cdc73, stronger effect = lower value
The campaign covered roughly 5,500 compounds. About 2,000 (36%) were called active. Roughly 18% stayed inconclusive and do not appear here. The list shows a part of the results.
Catalogue of compounds with associated normalized growth
Measured Parameter: normalized growth

# Compound, Reported Value
data = [
    ("CC(=O)O[C@H]1C[C@@H](OC(C)=O)C(C)(C)C2C[C@@H](OC(C)=O)[C@]3(C)C(CC[C@@]4(C)[C@H](c5ccoc5)C(=O)[C@H]5O[C@]543)[C@]21C (stereo partly drawn)", "1.05 (inactive)"),
    ("O=c1cccc2n1C[C@H]1CNCC2C1", "1.03 (inactive)"),
    ("CCn1cc(C(=O)O)c(=O)c2ccc(C)nc21", "0.852 (inactive)"),
    ("COC(=O)[C@H]1[C@H]2C[C@@H]3c4[nH]c5cc(OC)ccc5c4CCN3C[C@H]2C[C@@H](OC(=O)c2cc(OC)c(OC)c(OC)c2)[C@@H]1OC", "0.977 (inactive)"),
    ("CCn1cc(C(=O)O)c(=O)c2cc3c(cc21)OCO3", "1.01 (inactive)"),
    ("COc1ccccc1-c1cc(=O)c2c(OC)cccc2o1", "0.77 (active)"),
    ("CCn1cc(C(=O)O)c(=O)c2cnc(N3CCCC3)nc21", "1.09 (inactive)"),
    ("COc1ccccc1-c1cc(=O)c2cccc(OC)c2o1", "0.642 (active)"),
    ("CC[C@@H]1[C@@H](O)N2C3C[C@H]1C1C(O)[C@]4(C[C@@H]12)c1ccccc1N(C)[C@@H]34 (stereo partly drawn)", "0.961 (inactive)"),
    ("COc1cc(/C=C/C(=O)O)cc(OC)c1OC", "0.975 (inactive)"),
    ("C[C@H](COc1ccccc1)N[C@H](C)[C@H](O)c1ccc(O)cc1", "1.01 (inactive)"),
    ("COc1ccc(/C=C/c2cc(O)cc(O)c2)cc1", "0.583 (active)"),
    ("COP(=S)(OC)Oc1ccc(SC)c(C)c1", "0.984 (inactive)"),
    ("CCN(CC)CCOC(=O)C(Cc1cccc2ccccc12)CC1CCCO1 (stereo not drawn)", "1.02 (inactive)"),
    ("COc1cc(/C=C/C(=O)O)ccc1O", "0.968 (inactive)"),
    ("CCOP(=S)(OCC)SCCSCC", "0.947 (inactive)"),
    ("COc1ccc(/C=C/c2cc(O)cc(O[C@@H]3O[C@H](CO)[C@@H](O)[C@H](O)[C@H]3O)c2)cc1O", "0.987 (inactive)"),
    ("CCOP(=S)(OCC)SCSCC", "0.943 (inactive)"),
    ("OCC(S)CS (stereo not drawn)", "0.941 (inactive)"),
    ("CC1(C)C2CC(=O)O[C@@]3(C)C4=CC(=O)O[C@@H](c5ccoc5)[C@]4(C)CCC3[C@@]2(C)C=C[C@H]1O (stereo partly drawn)", "0.955 (inactive)"),
    ("CCOP(=S)(OCC)SCSP(=S)(OCC)OCC", "0.932 (inactive)"),
    ("COc1cc(O)cc(/C=C/c2ccccc2)c1", "0.456 (active)"),
    ("CCn1cc(C(=O)O)c(=O)c2cnc(N3CCNCC3)nc21", "0.951 (inactive)"),
]
